Each item that follows carries a reported GI50.
- System: SK-MEL-5
- test name: NCI tumour cell line growth inhibition, 48 h
Active and inactive are the calls of the source. Cut-off read from the data, not from the text of the source: active = GI50 up to about 1.1 µM and inactive = higher. Non-standard residues stand in square brackets, D forms with d. Residues, ends and D or L forms follow the SMILES beside them. ξ: configuration not given here. *: point of attachment. NMeF = CN[C@@H](Cc1ccccc1)C(=O)O; NMeV = CN[C@H](C(=O)O)C(C)C; ξNMeV = CNC(C(=O)O)C(C)C; Boc = CC(C)(C)OC(=O)*; OBn = c1ccc(CO*)cc1

[
  {
    "compound": "CC(C)C(C(=O)N(C)[C@H](C(=O)N1CCC[C@H]1C(=O)N(C)[C@@H](Cc1ccccc1)C(=O)OCc1ccccc1)C(C)C)N(C)C(=O)[C@@H](NC(=O)OC(C)(C)C)C(C)C (some centres undefined) (Boc-V[ξNMeV][NMeV]P[NMeF]-OBn)",
    "target system": "SK-MEL-5",
    "GI50": "7.14 µM (inactive)"
  },
  {
    "compound": "CC(C)(C)OC(=O)N1CCC[C@H]1CSC[C@@H]1CCCN1C(=O)OC(C)(C)C",
    "target system": "SK-MEL-5",
    "GI50": "18.7 µM (inactive)"
  },
  {
    "compound": "COc1ccc(S(=O)(=O)NC(CCC(=O)NN)C(=O)NN)cc1 (centres undefined)",
    "target system": "SK-MEL-5",
    "GI50": "> 100 µM (inactive)"
  }
]

Next compound, please.
Item `CCCCn1cnc2c(c(CC#N)nn2-c2ccccc2)c1=N` has what recorded GI50?
20.9 µM (inactive)

* * *

- Tested on: UACC-62
- test name: NCI tumour cell line growth inhibition, 48 h
The source made the active and inactive calls. No stated cut-off is given here; in the data, active = GI50 up to about 1.1 µM and inactive = higher.
Each item that follows carries a reported GI50.

Use these answered entries as a reference point.
[
  {
    "compound": "CCOC(=O)/C=C(/C=C\\COC1CCCCO1)c1ccccc1 (stereo unspecified)",
    "GI50": "24.5 µM (inactive)"
  },
  {
    "compound": "CC1(O)C=CC2CCC1C2O (stereo unspecified)",
    "GI50": "> 100 µM (inactive)"
  },
  {
    "compound": "NC1=NN(c2ccccc2)C(=O)C1C(=O)C(=O)Nc1ccc(Cl)c(Cl)c1 (stereo unspecified)",
    "GI50": "> 100 µM (inactive)"
  },
  {
    "compound": "O=C1N/C(=N\\C2CCCCC2)C2(CCN(CCCC3(c4ccc(F)cc4)OCCO3)CC2)N1c1ccccc1",
    "GI50": "> 10 µM (inactive)"
  },
  {
    "compound": "CC(/C=C/c1ncccc1OCCCCCC(=O)O)=N\\NC1=NCCN1",
    "GI50": "> 100 µM (inactive)"
  }
]

Item `Cc1cnc2c(c1)C(=O)N(c1ccc(Oc3ccccc3)cc1)S2(=O)=O` has what recorded GI50?
> 100 µM (inactive)

Item `O=C(/C=C/c1ccccc1)c1cc(Br)ccc1O` has what recorded GI50?
13.9 µM (inactive)

Item `O=C(/C=C/C1C(=O)NC(=O)NC1=O)CC(=O)C(=O)Nc1cc(Cl)c(Cl)cc1Cl` has what recorded GI50?
> 100 µM (inactive)

Item C[N+](C)(C)c1ncnc2c1ncn2C1CCCCO1 (stereo unspecified) has what recorded GI50?
> 100 µM (inactive)

Item `COc1ccc(Cc2c(N)[nH]c(=O)n(C)c2=O)cc1` has what recorded GI50?
> 100 µM (inactive)

Item CC1(C)OP(=O)(c2ccccc2)C=C1Br (stereo unspecified) has what recorded GI50?
> 100 µM (inactive)
